Values from patent US10213429B2

Target: sGC α1/β1 heterodimer (Homo sapiens, UniProt Q02108+Q02153)
Construct: expressed in transfected cells; host or cells: CHO-K1 (clone #7, CHO-K1/sGC)
Test: Cell-Based sGC Functional Assay (CASA Assay), cGMP by HTRF in CHO-K1/sGC cells
Conditions: cGMP production, 1 hr at 37° C., 4P fit, presence or absence of 1 μM DETA-NO not given, read-out: IP (nM) (inflection point)
Each record here notes measured EC50.

Examples with answers:
- compound: "CC1(c2ccc(F)cn2)C(=O)Nc2nc(-c3cn4ccnc4c(CCCC(F)(F)F)n3)nc(O)c21 (stereo not shown) [Example 32B]"
  measurement: "880 nM"
- compound: "CC1(c2ccc(Cl)cc2)C(=O)Nc2nc(-c3cn4ccnc4c(CCC(F)(F)C(F)(F)F)n3)ncc21 (stereo not shown)"
  measurement: "34 nM"
- compound: "CC1(c2ccc(F)cc2)C(=O)Nc2nc(-c3cn4ccnc4c(Cc4ccc(F)cc4)n3)nc(O)c21 (stereo not shown) [Example 81A]"
  measurement: "144 nM"

query: Fill in: EC50 of CCCCc1nc(-c2ncc3c(n2)NC(=O)C3(C)c2ccc(F)cc2)cn2ccnc12 (stereo not shown) [Example 78A] is ___
result: 50 nM

----------
Target: sGC α1/β1 heterodimer (Homo sapiens, UniProt Q02108+Q02153)
Construct: expressed in transfected cells; host or cells: CHO-K1 (clone #7, CHO-K1/sGC)
Sequence (Q02108 1-690): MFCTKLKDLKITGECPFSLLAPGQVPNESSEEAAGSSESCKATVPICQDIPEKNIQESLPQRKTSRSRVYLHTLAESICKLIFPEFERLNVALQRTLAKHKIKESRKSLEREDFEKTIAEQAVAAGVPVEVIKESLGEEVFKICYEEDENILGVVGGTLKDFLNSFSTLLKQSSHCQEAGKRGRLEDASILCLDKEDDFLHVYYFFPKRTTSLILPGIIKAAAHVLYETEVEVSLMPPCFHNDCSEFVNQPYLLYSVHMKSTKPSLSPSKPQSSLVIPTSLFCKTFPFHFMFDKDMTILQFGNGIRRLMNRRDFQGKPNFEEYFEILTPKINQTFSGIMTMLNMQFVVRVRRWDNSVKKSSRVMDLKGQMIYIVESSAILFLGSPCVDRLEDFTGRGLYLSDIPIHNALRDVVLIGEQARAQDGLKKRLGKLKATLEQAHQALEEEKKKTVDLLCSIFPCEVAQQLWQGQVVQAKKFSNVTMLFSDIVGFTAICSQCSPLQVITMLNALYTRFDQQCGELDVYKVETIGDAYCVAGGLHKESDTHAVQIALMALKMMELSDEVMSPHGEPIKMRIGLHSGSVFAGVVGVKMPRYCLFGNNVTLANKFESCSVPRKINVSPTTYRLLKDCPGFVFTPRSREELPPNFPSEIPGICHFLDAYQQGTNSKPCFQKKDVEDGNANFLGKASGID
Sequence (Q02153 1-619): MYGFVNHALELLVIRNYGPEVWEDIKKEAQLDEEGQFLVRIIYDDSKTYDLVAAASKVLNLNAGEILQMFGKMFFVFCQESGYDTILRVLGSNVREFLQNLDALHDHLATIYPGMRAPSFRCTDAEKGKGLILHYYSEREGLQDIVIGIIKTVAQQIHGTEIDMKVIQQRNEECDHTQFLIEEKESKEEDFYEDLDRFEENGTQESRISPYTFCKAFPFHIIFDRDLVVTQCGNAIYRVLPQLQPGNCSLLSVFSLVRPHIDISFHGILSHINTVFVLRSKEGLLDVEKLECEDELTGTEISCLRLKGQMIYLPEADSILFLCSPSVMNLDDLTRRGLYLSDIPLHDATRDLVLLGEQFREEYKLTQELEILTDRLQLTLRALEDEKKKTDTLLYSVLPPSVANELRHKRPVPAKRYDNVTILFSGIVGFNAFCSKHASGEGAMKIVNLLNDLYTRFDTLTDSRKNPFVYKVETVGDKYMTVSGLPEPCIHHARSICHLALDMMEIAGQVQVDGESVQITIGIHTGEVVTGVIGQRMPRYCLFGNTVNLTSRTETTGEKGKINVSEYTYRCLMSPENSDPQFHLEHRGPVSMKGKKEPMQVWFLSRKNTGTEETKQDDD
Test: Cell-Based sGC Functional Assay (CASA Assay), cGMP by HTRF in CHO-K1/sGC cells
Conditions: cGMP production, 1 hr at 37° C., 4P fit, presence or absence of 1 μM DETA-NO not given, read-out: IP (nM) (inflection point)
readout-type: EC50 (nM)
Give just the numeric value; nM need not be written.

- compound: "CCCc1nc(-c2ncc3c(n2)NC(=O)C3(C)c2ccc(Cl)cc2)cn2ccnc12 (stereo not shown) [Example 39A]"
  unit-annotation: "nM"
  EC50: 92
- compound: "CC1(c2ccc(Cl)cc2)C(=O)Nc2nc(-c3cn4ccnc4c(CCC(F)(F)F)n3)nc(C3CC3)c21 (stereo not shown) [Example 74A]"
  unit-annotation: "nM"
  EC50: 124
- compound: "O=C1Nc2nc(-c3cn4ccnc4c(CCCC(F)(F)F)n3)nc(O)c2C1(c1ccc(Cl)cc1)C1CC1 (stereo not shown) [Example 24B]"
  unit-annotation: "nM"
  EC50: 106
- compound: "CCCCc1nc(-c2ncc3c(n2)NC(=O)C3(c2ccc(Cl)cn2)C2CC2)cn2ccnc12 (stereo not shown) [Example 55A]"
  unit-annotation: "nM"
  EC50: 73
- compound: "O=C1Nc2nc(-c3cn4ccnc4c(CCC(F)(F)C(F)(F)F)n3)nc(O)c2C1(c1ccc(Cl)cn1)C1CC1 (stereo not shown) [Example 8A]"
  unit-annotation: "nM"
  EC50: 1180
- compound: "CC1(c2ccc(F)cc2)C(=O)Nc2nc(-c3cn4ccnc4c(CC4CCC4)n3)ncc21 (stereo not shown) [Example 63A]"
  unit-annotation: "nM"
  EC50: 10

query: May I ask what EC50 has been recorded for CCCCc1nc(-c2ncc3c(n2)NC(=O)C3(c2ccc(Cl)c(F)c2)C2CC2)cn2ccnc12 (stereo not shown) [Example 47A] ?
result: 11

query: Value lookup for EC50; key = CC1(c2ccc(Cl)cc2)C(=O)Nc2nc(-c3cn4ccnc4c(CCC(F)(F)F)n3)ncc21 (stereo not shown) [Example 61A]
result: 401

query: So what's the measured EC50 for this one? CC1(c2ccc(F)cc2)C(=O)Nc2nc(-c3cn4ccnc4c(OCCC4CC4)n3)nc(O)c21 (stereo not shown) [Example 93A]
result: 163

query: Report EC50 for O=C1Nc2nc(-c3cn4ccnc4c(CCCC(F)(F)F)n3)nc(O)c2C1(c1ccc(F)c(F)c1)C1CC1 (stereo not shown) [Example 20A] please.
result: 462

query: Quick one: EC50 of CCCCc1nc(-c2nc(O)c3c(n2)NC(=O)C3(C)c2ccc(F)cc2)cn2ccnc12 (stereo not shown) [Example 79A] ?
result: 133
